Target or system Progesterone receptor (Homo sapiens, UniProt P06401); metric Ki; compiled from varied reports.
Molecular target: Progesterone receptor (Homo sapiens, UniProt P06401)
Sequence (P06401 whole entry): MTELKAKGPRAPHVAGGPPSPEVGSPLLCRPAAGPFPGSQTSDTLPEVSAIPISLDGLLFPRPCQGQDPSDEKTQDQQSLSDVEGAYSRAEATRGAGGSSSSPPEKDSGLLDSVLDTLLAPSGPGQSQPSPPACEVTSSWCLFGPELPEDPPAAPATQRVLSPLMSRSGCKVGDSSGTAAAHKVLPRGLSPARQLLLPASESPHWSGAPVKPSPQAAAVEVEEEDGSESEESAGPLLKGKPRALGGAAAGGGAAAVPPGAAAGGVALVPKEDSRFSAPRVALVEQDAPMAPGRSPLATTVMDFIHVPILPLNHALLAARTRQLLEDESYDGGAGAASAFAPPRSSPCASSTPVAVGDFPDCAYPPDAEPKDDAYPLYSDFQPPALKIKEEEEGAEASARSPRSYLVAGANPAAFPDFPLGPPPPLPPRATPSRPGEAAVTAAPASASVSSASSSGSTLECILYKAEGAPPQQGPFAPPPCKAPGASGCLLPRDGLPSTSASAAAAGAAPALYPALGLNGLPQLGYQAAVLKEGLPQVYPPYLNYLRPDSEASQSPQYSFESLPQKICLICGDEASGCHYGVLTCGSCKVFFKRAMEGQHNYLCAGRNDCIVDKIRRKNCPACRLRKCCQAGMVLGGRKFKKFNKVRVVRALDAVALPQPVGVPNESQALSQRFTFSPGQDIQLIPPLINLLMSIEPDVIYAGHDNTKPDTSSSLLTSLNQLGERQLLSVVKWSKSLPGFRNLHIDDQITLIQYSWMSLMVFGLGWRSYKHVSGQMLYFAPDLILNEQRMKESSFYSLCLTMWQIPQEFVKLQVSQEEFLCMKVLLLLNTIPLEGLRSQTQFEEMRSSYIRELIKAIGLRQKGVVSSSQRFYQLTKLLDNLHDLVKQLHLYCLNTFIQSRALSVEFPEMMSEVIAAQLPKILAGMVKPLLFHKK
MEASURED ENDPOINT: Ki (nM)

P. CC1=CC(C)(C)Nc2ccc3c(c21)Cc1cc(Br)ccc1-3
Q. O=c1[nH]c2ccc(-c3cccc(Cl)c3)cc2s1
R. C#C[C@]1(O)CC[C@H]2[C@@H]3CCC4=CC(=O)CCC4=C3[C@@H](c3ccc(N(C)C(=O)CC[C@H](NC(=O)CC[C@@H](C)[C@H]4CC[C@H]5[C@@H]6[C@H](O)C[C@@H]7C[C@H](O)CC[C@]7(C)[C@H]6C[C@H](O)[C@]45C)C(=O)O)cc3)C[C@@]21C
S. CC1=CC(C)(C)Nc2ccc3c(c21)C(c1cccc(Br)n1)Oc1ccccc1-3 (centres undefined)
Query :: Which order do the above compounds take when sorted by rising Ki? Smallest first. Hello, could you send the labels back in the order asked? Thank you.
Result :: R, S, Q, P
(R: 1.2 nM, S: 13.8 nM, Q: 127 nM, P: 200 nM)
